Experiment: S. cerevisiae RM11-1a growth modifiers, primary screen, strain RM11-1a, OD600, basal, 24 h (AID 1177);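 also: cultures grown under basal conditions with no added stressor; test concentration not given here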
Conditions: OD600, 24 h, higher = more signal, called active from +8 up or from −8 down
Is z-score at least 0.2? Then YES. If not, NO.

COC(=O)[C@H]1COC(c2ccc(OCCCO)cc2)=N1 = NO
COc1ccc(O[C@H]2C=C[C@@H](c3ccccc3)O[C@@H]2COC(=O)N2CCCCC2)cc1 = NO
CO[C@@H]1COC(=O)[C@@H]2CCCN2C(=O)[C@@H](C)COC(=O)[C@H](COCc2ccccc2)NC(=O)CC=C[C@H]1C = YES

As a next step, examine the compound that follows.
Challenge: Kindly determine if z-score recorded for COc1ccc(O[C@@H]2[C@H](O)CO[C@H]2C=CC#Cc2ccccc2)cc1 is above or exactly 0.2.
Response given: YES
